assay: protein stability index of a GFP-peptide fusion (yeast GPS) (PSI 1-4); higher = more stable; sorted into four equal gates, so the index is relative within each strain; details: pdr5∆
recorded metric: protein stability index
Response field accepts a number only; no unit should be typed.

Consider the following illustrative entries.
VLVKWTRTIKQNNFHVL [RGR1]
1.3
MGRVIRNQRKGAGSIFT [RPL2A]
3.28
YGDGNGKGDNDNGLGPL [SWI3]
3.13
TEYFENKQSVSNLSPDL [DSN1]
3.4
ETQPGCNEEQTLEAKIG [RPO31]
3.33
QNKKNLKWVAVVPDLGH [SSN2]
3.07

protein stability index measured on LFVCNKDPDVPLVLLQQ [POP3] = 2.32

protein stability index measured on GLGYVFEFQYLTIGVKF [SRB5] = 1.53

protein stability index measured on QVVLGGTSKYLINGHRA [SMC2] = 3.19

protein stability index measured on VIVPLSTLSNWSSEFAK [SNF2] = 2.35

protein stability index measured on NKIMTNQINSFWSLHSS [NUT1] = 2.23

protein stability index measured on RFYELEESLTVLNCLRT [YJR042W/NUP85] = 2.25

protein stability index measured on LSQNESTRASTVPNLPT [ISW2] = 2.5

protein stability index measured on VASQTVKKVIEINPFLL [PRE2] = 3.07

protein stability index measured on KAPNAVVITFEKEDHTL [RPB11] = 2.7
